- Tested on: LOC_OS01G67340-cb003
- Measurement Protocol: thermal shift delta Tm vs DMSO control; higher = stronger stabilization (binding);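 also: purified Escherichia coli-expressed rice kinase domain construct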
- Reported Conditions: 12.5 µM; protein concentration 2 µM
Result Type: thermal shift delta Tm (°C)
Numbers only, in °C.

Structure: CN(C)C[C@@H]1CCn2cc(c3ccccc32)C2=C(C(=O)NC2=O)c2cn(c3ccccc23)CCO1
thermal shift delta Tm / °C: 0.03
//
Structure: CNC(=O)c1ccc(C)c(-n2c(C)cc(OCc3ccc(F)cc3F)c(Br)c2=O)c1
thermal shift delta Tm / °C: -0.29
//
Structure: Oc1cc(O)cc(/C=C/c2ccc(O)c(O)c2)c1
thermal shift delta Tm / °C: 0.13
//
Structure: O=C1NC(=O)/C(=C/c2cccc(C(F)(F)F)c2)S1
thermal shift delta Tm / °C: 0.15

Lab note: next compound to report on.
Query :: API: value(readout=thermal shift delta Tm, system=LOC_OS01G67340-cb003) for record CNC(=O)c1cc(Oc2ccc3nc(N[C@@H]4CCCC[C@H]4O)sc3c2)ccn1
Result :: 1.16

###

Hi there, I'd appreciate the recorded thermal shift delta Tm for every entry that follows.
- Tested on: LOC_OS01G13800-cb001
- Measurement Protocol: thermal shift delta Tm vs DMSO control; higher = stronger stabilization (binding)
- Reported Conditions: 12.5 µM; protein concentration 2 µM
Answers are plain numbers, in °C.

Some molecules with known thermal shift delta Tm results, for comparison:
Molecule: COc1cc(Nc2ncc(F)c(Nc3ccc4c(n3)N(COP(=O)(O)O)C(=O)C(C)(C)O4)n2)cc(OC)c1OC [Fostamatinib (R788)]
Quantity Unit: °C
Assay Value: -0.55
//
Molecule: C=CC(=O)N1CCC[C@@H](n2nc(-c3ccc(Oc4ccccc4)cc3)c3c(N)ncnc32)C1
Quantity Unit: °C
Assay Value: 0.2
//
Molecule: Cn1cc(-c2ccc3ncc(Cc4ccc5ncccc5c4)n3n2)cn1
Quantity Unit: °C
Assay Value: 0.22
//
Molecule: COc1cc2ncnc(Nc3ccc(Cl)cc3F)c2cc1OC
Quantity Unit: °C
Assay Value: 0.26

Give thermal shift delta Tm for all molecules that follow.
1. Cc1c(NC(=O)c2ccc(C(C)(C)C)cc2)cccc1-c1cn(C)c(=O)c(Nc2ccc(C(=O)N3CCOCC3)cc2)n1
2. COc1cc(N2CCC(N)CC2)ccc1Nc1ncc(Cl)c(-c2c[nH]c3ccccc23)n1
3. CC1=C(C(=O)Nc2cc3cn[nH]c3cc2F)C(c2ccc(C(F)(F)F)cc2)CC(=O)N1 (centres undefined)
4. COc1cc2ncnc(Nc3ccc(O)c(Br)c3)c2cc1OC

Result ::
1: 0.18; 2: -0.64; 3: 0.54; 4: -0.02

Working through the 5 molecules below one at a time, give thermal shift delta Tm for each.
1. CC#CC(=O)Nc1ccc2ncnc(Nc3cccc(Br)c3)c2c1
2. COc1ccc(S(=O)(=O)N(C(C)=O)c2ccccc2/C=C/c2cc[n+]([O-])cc2)cc1
3. O=c1c(O)c(-c2cc(O)c(O)c(O)c2)oc2cc(O)cc(O)c12 [Myricetin]
4. C[C@H](CN(C)C)Oc1nc(Nc2cc3cccc(Cl)c3cn2)cnc1C#N
5. COc1ccc(CNC(=O)Nc2ncc([N+](=O)[O-])s2)cc1

Result ::
1. 0.12
2. 0.64
3. 1.96
4. 0.1
5. 0.54

State recorded thermal shift delta Tm for all listed molecules.
1. CCN(CC)CCCC(C)Nc1nc(C)cc(Nc2ccc3nc(C)cc(N)c3c2)n1 (centres undefined)
2. COc1cc(Nc2ncc(F)c(Nc3ccc4c(n3)NC(=O)C(C)(C)O4)n2)cc(OC)c1OC
3. CS(=O)(=O)N1CCc2c(-c3cnc(N)nc3)nc(N3CCOCC3)nc21
4. COc1ccc(S(=O)(=O)N(CCO)c2ccccc2CN(C)C/C=C/c2ccc(Cl)cc2)cc1 [KN-93 Phosphate]

Result ::
[-0.26, -0.84, 0.32, -0.08]

Batch request: thermal shift delta Tm for each of the following molecules.
1. CC[C@@H]1C(=O)N(C)c2cnc(Nc3ccc(C(=O)NC4CCN(C)CC4)cc3OC)nc2N1C1CCCC1
2. Cn1cc(-c2ccc3nnc(Sc4ccc5ncccc5c4)n3n2)cn1

Result ::
-0.37
-0.11

Hey, just so you know, these numbers are from the supplement of paper PMC9694430.
